- STUDY_SYSTEM: KAI2 (Arabidopsis thaliana, UniProt Q9SZU7)
- Sequence (Q9SZU7 whole entry): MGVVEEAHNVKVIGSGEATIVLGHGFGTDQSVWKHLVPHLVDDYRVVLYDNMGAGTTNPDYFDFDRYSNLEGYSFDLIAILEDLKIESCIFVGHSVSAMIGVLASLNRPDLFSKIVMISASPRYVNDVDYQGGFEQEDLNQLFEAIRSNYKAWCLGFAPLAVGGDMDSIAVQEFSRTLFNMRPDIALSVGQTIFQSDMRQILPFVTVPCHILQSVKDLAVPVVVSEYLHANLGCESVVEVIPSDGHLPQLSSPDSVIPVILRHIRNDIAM
- TEST_SUMMARY: X-ray crystal structure at […] Å (soak); also dYLG competition IC50 and DSF
- Format: biochemical
ASSAY_ENDPOINT: IC50

Note to self: IC50 recorded for O=C1C=C[C@H](Cc2ccc(-c3ccccc3)cc2[N+](=O)[O-])O1 [(+)-6′-carba-dMGer] was 2500 nM

Source of measurements: paper PMC11874195
